Test method notes: Glucuronidation of ε-viniferin by human liver S9 fractions (UDPGA)
Format: in vitro ADME
Test context: formation of the glucuronide from ε-viniferin, human liver S9, mean ± SEM, n=3
Reported property: Vmax
The answer consists of two parts: a number and, after it, its unit.

Query string: Given the compound O=C(O)C1OC(Oc2ccc(C3Oc4cc(O)cc(/C=C/c5ccc(O)cc5)c4C3c3cc(O)cc(O)c3)cc2)C(O)C(O)C1O (stereo not shown) , what is its reported Vmax?
Result string: 0.78 ± 0.06 pmol/min/mg protein

Query string: Given the compound O=C(O)C1OC(Oc2cc(O)cc(C3c4c(/C=C/c5ccc(O)cc5)cc(O)cc4OC3c3ccc(O)cc3)c2)C(O)C(O)C1O (stereo not shown) , what is its reported Vmax?
Result string: 4.91 ± 0.78 pmol/min/mg protein

Query string: Given the compound O=C(O)C1OC(Oc2cc(/C=C/c3ccc(O)cc3)c3c(c2)OC(c2ccc(O)cc2)C3c2cc(O)cc(O)c2)C(O)C(O)C1O (stereo not shown) , what is its reported Vmax?
Result string: 11.27 ± 1.30 pmol/min/mg protein

Query string: Given the compound O=C(O)C1OC(Oc2ccc(/C=C/c3cc(O)cc4c3C(c3cc(O)cc(O)c3)C(c3ccc(O)cc3)O4)cc2)C(O)C(O)C1O (stereo not shown) , what is its reported Vmax?
Result string: 2.54 ± 0.16 pmol/min/mg protein
